Test system: MS2 coat protein
protocol-description: apparent KD of MS2 coat protein; designed switch direction (-1 OFF switch, 1 ON switch): -1; higher = weaker reporter binding
test-parameters: input ligand: microRNA oligo, concentration not stated
# label = yes if apparent KD of MS2 coat protein >= 20 nM else no

Below, 5 sequences whose answers are already recorded.
{"sequence-input": "ACAAGCUUUUUGUUCGUCUUAUAAAAUCCUAAGAGGAAAACAUGAGGAUCACCCAUGUAACAAAGACGGACUCAUGU [Sesor Array 12 - Jieux - Sensor v3, turn-off variant 2] (Eterna round: R96, puzzle: Sensor v3, turn-off variant 2)", "classification": "yes"}
{"sequence-input": "AAAAAGUCAGGAUAUGCGAAGGCGUCUGAUAGACGAGGCUAGCAGAAGGGACAUGAGGAUCACCCAUGUAAAGA [Mat - Exclusion 4 - D82] (Eterna round: R96, puzzle: Exclusion 4)", "classification": "no"}
{"sequence-input": "AAACUACUUGGGCUGACACAUGAGGAUCACCCAUGUGGAGGGCAGGAUAUGCCCAUAAAAUUGGCGCAGAAGGGCCCACGUAGA [Tegesousbe] (Eterna round: R96, puzzle: Exclusion NG 3)", "classification": "no"}
{"sequence-input": "GACAUGAGGAUCACCCAUGUAAGGGAUGAACUUCUGGGUAGCUAGGAUAUGGCUACAAAGGUGGACCAGAAGGAGCGUACCCUU [Amaqura] (Eterna round: R96, puzzle: Exclusion NG 3)", "classification": "no"}
{"sequence-input": "UCGACUACAGUAGGAUAUGUAGGAUAUGUGGUUGAGGAUCACCCAACCACUUCAACGACAGAAGGACAGAAGGACUGACAUCGU [pwkr exNG2 2xFMN 1xF5.4] (Eterna round: R96, puzzle: Exclusion NG 2)", "classification": "no"}

Inquiry: Textbook exercise: given the entry UUAGAAUUGUUAGGAUAUUAAUUAUUUUUUAGUAUGAUCUACAUGAGGAUCACCCAUGUUAAAUAUAAGAAGGAACGUUUUAUU [JR_ExcNG2_Sub097] (Eterna round: R96, puzzle: Exclusion NG 2) , state whether its apparent KD of MS2 coat protein is greater than or equal to 20 nM.
Reply text: yes

Inquiry: Textbook exercise: given the entry GCGUAGUAUGUAGGAUAUCGGUCAGUUUCUGAUCGAGAAGGACAUGAGGAUCACCCAUGUAAAACGACCGCUUUGUGGUUACGC [JL ENG1 3.58] (Eterna round: R96, puzzle: Exclusion NG 1) , state whether its apparent KD of MS2 coat protein is greater than or equal to 20 nM.
Reply text: no

Inquiry: Textbook exercise: given the entry CACGAAAUGUGAGGAUAUGUGCGACAAAGUUGCACAGAAGGCACAUGAGGAUCACCCAUGUAAGCUAGGUCGAAAGACCUAGCG [Omei Exc(NG)1 Av2] (Eterna round: R96, puzzle: Exclusion NG 1) , state whether its apparent KD of MS2 coat protein is greater than or equal to 20 nM.
Reply text: yes

Inquiry: Textbook exercise: given the entry UAUAUAUAGUAAGGAUAUGUAUUUAUAUUAUAAACAGAAGGUACUGACAUGAGGAUCACCCAUGUUUUAGUGUGGGCAUGUAGA [JMF's solution 15] (Eterna round: R96, puzzle: Exclusion NG 1) , state whether its apparent KD of MS2 coat protein is greater than or equal to 20 nM.
Reply text: yes

Value source: the supplement of paper PMC9170038
